The compounds listed here are annotated with their melting point.

Example entries begin here.
- CCc1cc2c(-c3ccccc3Cl)nc(=O)n(C)c2s1: 99 °C
- CCN(CC)CCOc1ccc(C#CC(C)(C)O)cc1: 64 °C
- COc1cccc(N(CCN2CCC(C(=O)c3ccc(F)cc3)CC2)C(=O)c2ccc(NC(C)=O)cc2)c1: 146 to 152 °C
- CC(=O)NC[C@H]1CN(c2cccc(F)c2)C(=O)O1: 140 °C
- N=C(N)NC(=O)Cc1c(-c2ccccc2)cccc1-c1ccc2ccccc2c1: 36.8 to 36.9 °C

Ask | Requested read-out: melting point. Entry: Cn1cc(-c2cccc(C(F)(F)F)c2)c(=O)c(-c2ccc(Cl)cc2Cl)c1
Reply | 139 to 142 °C

Ask | Requested read-out: melting point. Entry: CCOC(=O)CN(C(=O)CC)c1c(SC(F)(F)F)c(C)nn1-c1c(Cl)cc(C(F)(F)F)cc1Cl
Reply | 73 to 74 °C

Ask | Requested read-out: melting point. Entry: CCc1nc2sc3ccccc3n2c1CO
Reply | 180 to 182 °C

Ask | Requested read-out: melting point. Entry: Cc1cccc(C(O)CNC(=C[N+](=O)[O-])NCCSCc2cc(C)c(CN(C)C)s2)c1 (configuration not stated)
Reply | 88 to 89 °C

Ask | Requested read-out: melting point. Entry: Nc1ccccc1OC1CCCC1
Reply | 87 to 87.5 °C

Ask | Requested read-out: melting point. Entry: O=C1CCC(N2Cc3c(NCc4ccco4)cccc3C2=O)C(=O)N1 (configuration not stated)
Reply | 248 to 250 °C

Ask | Requested read-out: melting point. Entry: COc1ccc(Cn2c(=O)cc(-c3ccccn3)c3cnc(N4CCC[C@H]4CO)nc32)cc1Cl
Reply | 184 to 186 °C

Ask | Requested read-out: melting point. Entry: CC(OC(=O)c1ccccc1)C(N)=S (configuration not stated)
Reply | 100 to 101 °C

Ask | Requested read-out: melting point. Entry: O=Cc1ccc(O)c(O)c1Cl
Reply | 193 to 195 °C

Ask | Requested read-out: melting point. Entry: COC(=O)c1sc(-c2ccccc2)c(O)c1O
Reply | 143 to 144 °C

Ask | Requested read-out: melting point. Entry: CCOC(=O)c1cc2cc(C)c(C(F)(F)F)cc2[nH]1
Reply | 176 to 178 °C

Ask | Requested read-out: melting point. Entry: CCCCCCCCCCCCCCCCC#CCBr
Reply | 34 to 35 °C

Ask | Requested read-out: melting point. Entry: O=C1C=CC(=O)C2=C1OCCO2
Reply | 156 °C

Ask | Requested read-out: melting point. Entry: O=C(O)C1CC(F)(F)CC1C(=O)O (configuration not stated)
Reply | 128 °C

Ask | Requested read-out: melting point. Entry: O=C1C=C(N2CCCCC2)c2oc3ccccc3c2C1=O
Reply | 151 to 156 °C

Ask | Requested read-out: melting point. Entry: N#Cc1ccc2c(c1)c(-c1ccccc1)nn2CCCBr
Reply | 100 to 102 °C

Ask | Requested read-out: melting point. Entry: CC(C)CCN1C(=O)C(NC(=O)Oc2ccccc2)C(=O)N(c2ccccc2)c2ccc(Cl)cc21 (configuration not stated)
Reply | 190 to 195 °C
